- method-summary: Dynamic light scattering of LNPs: Z-average diameter, number average diameter, PDI
- Type: physicochemical
- setup-conditions: LNP with G534 sgRNA and Cas9 mRNA, sg:mRNA 1:2, experiment 109
Give PDI for every item shown.

Given the compound CCCCC/C=C\C/C=C\CCCCCCCC(=O)OCC(COC(=O)CCC(OCCCCCCCC)OCCCCCCCC)COC(=O)OCCCN(CC)CC (stereo not shown) [Compound 1, reference compound] , what is its reported PDI? 0.01

Recorded PDI for CCCCCCCCCC(C)OC(=O)CCCCCCCC(=O)OCC(COC(=O)CCC(OCCCCCCCC)OCCCCCCCC)COC(=O)OCCCN(CC)CC (stereo not shown) [Compound 94] , please? 0.02

Sample CCCCC/C=C\C/C=C\CCCCCCCC(=O)OCC(COC(=O)CCC(OCCCCCCCC)OCCCCCCCC)COC(=O)NCCN(CC)CC (stereo not shown) [Compound 12] — what was its PDI? 0.06

Given the entry CCCCCCCCCCOC(=O)CCCCCCCC(=O)OCC(COC(=O)CCC(OCCCCCCCC)OCCCCCCCC)COC(=O)OCCCN(CC)CC (stereo not shown) [Compound 59] , report its measured PDI. 0.04
